The entries below are paired with their reported pKd.
- System: IL-23 (human, p19/p40 heterodimer) (Homo sapiens, UniProt Q9NPF7;P29460 SEQ:20-189,SEQ:23-328)
- Sequence (Q9NPF7 20-189, chain 1 of 2): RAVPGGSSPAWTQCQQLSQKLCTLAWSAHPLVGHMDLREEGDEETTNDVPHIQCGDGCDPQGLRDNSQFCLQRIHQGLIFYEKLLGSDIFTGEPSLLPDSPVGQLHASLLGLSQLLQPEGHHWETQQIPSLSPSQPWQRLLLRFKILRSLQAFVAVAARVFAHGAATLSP
- Sequence (P29460 23-328, chain 2 of 2): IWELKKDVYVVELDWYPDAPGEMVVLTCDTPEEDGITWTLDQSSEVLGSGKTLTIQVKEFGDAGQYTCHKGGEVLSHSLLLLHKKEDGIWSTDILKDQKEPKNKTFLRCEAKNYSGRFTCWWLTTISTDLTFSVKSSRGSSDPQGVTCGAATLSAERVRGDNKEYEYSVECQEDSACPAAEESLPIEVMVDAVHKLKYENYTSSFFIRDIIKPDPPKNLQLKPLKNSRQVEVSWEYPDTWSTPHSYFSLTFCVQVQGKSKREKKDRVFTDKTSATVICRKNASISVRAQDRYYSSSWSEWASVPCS
- Method Summary: filter; PBS, tRNA, ssDNA, BSA
- Experimental Conditions: tags: R&D Systems, carrier free
pKd: −log10 of the molar value.
Property Measured: pKd

>>> numeric_value("ARC635 (mixed, deoxy A,G; 2'-OMe C,U) RNA: GGGAGAGGAGAGAACGUUCUACAGGCUCAAAAGAGGGGGAUGUGGGAGGGGGUCGAUCGAUCGAUCAUCGAUG")
6.77
>>> numeric_value("ARC643 (mixed, deoxy A,G; 2'-OMe C,U) RNA: GGGAGAGGAGAGAACGUUCUACAGGCCGAUGAGGGGGAGCAGUGGGUGGGGGGUCGAUCGAUCGAUCAUCGAUG")
7.15
>>> numeric_value("ARC642 (mixed, deoxy A,G; 2'-OMe C,U) RNA: GGGAGAGGAGAGAACGUUCUACAGGCGCAGCCAGCGGGGAGUGAGGGUGGGGGUCGAUCGAUCGAUCAUCGAUG")
7.43
>>> numeric_value("ARC644 (mixed, deoxy A,G; 2'-OMe C,U) RNA: GGGAGAGGAGAGAACGUUCUACUAGUGAGGCGGUAACGGGGGGUGAGGGUGGGGUCGAUCGAUCGAUCAUCGAUG")
7.46
>>> numeric_value("ARC645 (mixed, deoxy A,G; 2'-OMe C,U) RNA: GGGAGAGGAGAGAACGUUCUACAGGUAGGCAAGAUAUUGGGGGAAGCGGGUGGGGUCGAUCGAUCGAUCAUCGAUG")
7.47
